Values from ChEMBL document CHEMBL1201862

assay: viability of HCT116 lacking mutant beta-catenin – cell-based, human colon tumor, dose response (AID 1045); format: functional;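 further: HCT116 colon tumor cells with beta catenin knocked out; cells exposed to compound for 60 hours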
Activity calls are given as the source filed them. How the calls were made is not given here.
METRIC_NAME: EC50

[[record]]
structure = "Cc1cccnc1Nc1nc(-c2ccc(O)c(O)c2)cs1"
endpoint_value = "13.6 µM (active)"

[[record]]
structure = "Fc1c(F)c(C(F)(F)F)c(F)c(F)c1N/N=C\\c1cccs1"
endpoint_value = "43.1 µM (active)"

[[record]]
structure = "COc1ccc(NC(=O)Cn2ncc(Cl)c(Cl)c2=O)cc1S(=O)(=O)N1CCOCC1"
endpoint_value = "5.71 µM (active)"

[[record]]
structure = "O=C(Nc1nnc(-c2cccs2)o1)c1cccc(F)c1"
endpoint_value = "8.96 µM (active)"

[[record]]
structure = "COc1ccc(CCN2CCC(Nc3nc4ccccc4n3Cc3ccc(F)cc3)CC2)cc1"
endpoint_value = "3.78 µM (active)"

